assay: Therapeutic index, ratio IC50 for human SW480 cells to IC50 for normal human fibroblasts; format: cell-based; conditions: SW480 cells versus normal human fibroblasts, read-out: Ratio IC50
observable: selectivity ratio

INSERT INTO results (molecule_smiles, number) VALUES
  ('CC(=O)N(/N=N/c1ccc([N+](=O)[O-])cc1Cl)c1ccc([N+](=O)[O-])cc1Cl', 0.038);

###

experiment: Therapeutic index, ratio IC50 for human MIAPaCa2 cells to IC50 for normal human fibroblasts; format: cell-based, MIA PaCa-2; details: MIAPaCa2 cells versus normal human fibroblasts, read-out: Ratio IC50
observable: selectivity ratio

INSERT INTO measurements (molecule_smiles, observable, number) VALUES
  ('CC(=O)N(/N=N/c1ccc([N+](=O)[O-])cc1Cl)c1ccc([N+](=O)[O-])cc1Cl', 'selectivity ratio', 0.037);

Each recorded value in this set is attributed to ChEMBL document CHEMBL1806465.
